Measured IC50 of individual entries
System: Ramos cells (B-cell lymphoma)
Experiment: Proliferation inhibition, Ramos (cck-8)
Assay type: cell-based
Measurement setup: Homo sapiens, 96 h incubation

Use the examples below as a reference point.
[[record]]
molecule = "Cc1[nH]c2ccccc2c1CCNCc1ccc(/C=C/C(=O)NO)cc1 [LBH589, panobinostat, reference compound]"
measured_attribute = "IC50"
assay_value = "0.1 to 1 nM"

[[record]]
molecule = "COc1ccc(-c2nc(N3CCOCC3)c3nc(CN(C)c4ncc(C(=O)NO)cn4)n(C)c3n2)cc1"
measured_attribute = "IC50"
assay_value = "1 to 10 nM"

[[record]]
molecule = "CN(Cc1nc2c(N3CCOCC3)nc(-c3cnc(N)nc3)nc2n1C)c1ncc(C(=O)NO)cn1"
measured_attribute = "IC50"
assay_value = "10 to 100 nM"

[[record]]
molecule = "CN(Cc1nc2c(N3CCOCC3)nc(-c3ccncc3)nc2n1C)c1ncc(C(=O)NO)cn1"
measured_attribute = "IC50"
assay_value = "0.1 to 1 nM"

[[record]]
molecule = "CN(Cc1nc2c(N3CCOCC3)nc(-c3ccc(N)cc3)nc2n1C)c1ncc(C(=O)NO)cn1"
measured_attribute = "IC50"
assay_value = "1 to 10 nM"


// switching to the query molecule
Exercise: Missing value: IC50, Ramos cells (B-cell lymphoma), entry COc1ccc(-c2nc(N3CCOCC3)c3nc(CN(C)c4ncc(C(=O)NO)cn4)n(C)c3n2)cn1 . Fill in?
Solution: 0.1 to 1 nM

###

Here we list molecules with their recorded IC50 when tested on mTOR (Homo sapiens).
Sequence (P42345 1362-2549 limits assumed): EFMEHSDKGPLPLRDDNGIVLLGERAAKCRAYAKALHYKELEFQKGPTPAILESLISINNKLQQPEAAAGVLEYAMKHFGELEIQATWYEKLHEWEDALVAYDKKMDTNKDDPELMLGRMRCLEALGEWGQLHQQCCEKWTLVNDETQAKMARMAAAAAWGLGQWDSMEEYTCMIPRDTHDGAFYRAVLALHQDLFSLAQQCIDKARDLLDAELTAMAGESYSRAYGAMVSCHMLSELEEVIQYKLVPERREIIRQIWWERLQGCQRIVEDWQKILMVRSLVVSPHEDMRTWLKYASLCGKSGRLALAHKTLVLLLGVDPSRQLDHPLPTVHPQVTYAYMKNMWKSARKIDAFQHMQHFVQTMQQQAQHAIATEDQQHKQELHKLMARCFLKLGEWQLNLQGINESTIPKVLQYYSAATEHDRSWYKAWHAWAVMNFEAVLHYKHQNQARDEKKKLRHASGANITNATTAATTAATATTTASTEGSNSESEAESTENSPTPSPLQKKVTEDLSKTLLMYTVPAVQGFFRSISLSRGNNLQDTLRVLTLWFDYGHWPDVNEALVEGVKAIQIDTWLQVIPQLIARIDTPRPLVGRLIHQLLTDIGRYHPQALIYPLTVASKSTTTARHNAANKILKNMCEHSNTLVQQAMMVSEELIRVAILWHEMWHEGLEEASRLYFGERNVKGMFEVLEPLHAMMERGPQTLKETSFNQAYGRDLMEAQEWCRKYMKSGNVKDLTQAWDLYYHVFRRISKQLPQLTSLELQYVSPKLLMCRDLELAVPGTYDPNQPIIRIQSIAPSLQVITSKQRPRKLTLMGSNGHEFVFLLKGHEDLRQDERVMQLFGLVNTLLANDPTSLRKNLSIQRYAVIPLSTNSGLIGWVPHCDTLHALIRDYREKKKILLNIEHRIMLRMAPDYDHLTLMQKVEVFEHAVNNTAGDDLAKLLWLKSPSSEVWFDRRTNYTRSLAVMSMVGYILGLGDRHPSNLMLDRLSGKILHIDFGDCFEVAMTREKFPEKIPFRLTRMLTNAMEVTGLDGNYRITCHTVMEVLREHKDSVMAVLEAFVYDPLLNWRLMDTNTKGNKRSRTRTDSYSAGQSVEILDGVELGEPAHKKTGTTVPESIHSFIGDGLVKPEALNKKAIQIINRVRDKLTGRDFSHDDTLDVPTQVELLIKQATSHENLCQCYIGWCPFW

Solved entries (count: 6):
[[record]]
molecule = "Cc1ncc(-c2nc(N3CCOCC3)c3nc(CN(C)c4ncc(C(=O)NO)cn4)n(C)c3n2)cn1 [CLJ-13]"
measured_attribute = "IC50"
assay_value = "100 to 1000 nM"

[[record]]
molecule = "COc1ccc(-c2nc(N3CCOCC3)c3sc(CN(C)c4ncc(C(=O)NO)cn4)cc3n2)cn1 [CUDC907, reference compound]"
measured_attribute = "IC50"
assay_value = "1000 to 10000 nM"

[[record]]
molecule = "COc1ccc(-c2nc(N3CCOCC3)c3nc(CN(C)c4ncc(C(=O)NO)cn4)n(C)c3n2)cn1 [CLJ-1]"
measured_attribute = "IC50"
assay_value = "1000 to 10000 nM"

[[record]]
molecule = "CN(Cc1nc2c(N3CCOCC3)nc(-c3ccc4[nH]ncc4c3)nc2n1C)c1ncc(C(=O)NO)cn1 [CLJ-15]"
measured_attribute = "IC50"
assay_value = "> 10000 nM"

[[record]]
molecule = "CN(Cc1nc2c(N3CCOCC3)nc(-c3cnc(N)nc3)nc2n1C)c1ncc(C(=O)NO)cn1 [CLJ-11]"
measured_attribute = "IC50"
assay_value = "100 to 1000 nM"

[[record]]
molecule = "CCCN(Cc1nc2c(N3CCOCC3)nc(-c3ccc(OC)nc3)nc2n1C)c1ncc(C(=O)NO)cn1 [CLJ-6]"
measured_attribute = "IC50"
assay_value = "> 10000 nM"


Exercise: Fill blank: measured IC50 of the molecule CNc1ncc(-c2nc(N3CCOCC3)c3nc(CN(C)c4ncc(C(=O)NO)cn4)n(C)c3n2)cn1 [CLJ-12] is ____.
Solution: 100 to 1000 nM

###

Tested on: A2780s cells (ovarian cancer)
Experiment: Cell proliferation inhibition, A2780s (MTT)
Type: cell-based
Measurement setup: Homo sapiens, 96 h incubation, read-out: Proliferation IC50, Ovarian cancer A2780s
pIC50: −log10 of the molar value.
Collected pIC50 values appear next to each entry.

Illustrative cases are given below, each with its answer.
[[record]]
structure_as_smiles = "CCCN(Cc1nc2c(N3CCOCC3)nc(-c3ccc4[nH]ncc4c3)nc2n1C)c1ncc(C(=O)NO)cn1"
assay_value = "< 6.00"

[[record]]
structure_as_smiles = "CN(Cc1nc2c(N3CCOCC3)nc(-c3cccnc3)nc2n1C)c1ncc(C(=O)NO)cn1"
assay_value = "7.00 to 8.00"

[[record]]
structure_as_smiles = "CN(Cc1nc2c(N3CCOCC3)nc(-c3ccc4[nH]ncc4c3)nc2n1C)c1ncc(C(=O)NO)cn1"
assay_value = "7.00 to 8.00"

[[record]]
structure_as_smiles = "COc1cc(-c2nc(N3CCOCC3)c3nc(CN(C)c4ncc(C(=O)NO)cn4)n(C)c3n2)cc(OC)c1OC"
assay_value = "7.00 to 8.00"

[[record]]
structure_as_smiles = "COc1ccc(-c2nc(N3CCOCC3)c3nc(CN(C)c4ncc(C(=O)NO)cn4)n(C(C)C)c3n2)cn1"
assay_value = "< 6.00"


Exercise: Give the measured pIC50 of COc1ccc(-c2nc(N3CCOCC3)c3nc(CN(C)c4ncc(C(=O)NO)cn4)n(C)c3n2)cc1 .
Solution: 8.00 to 10.00

Exercise: // query: CN(Cc1nc2c(N3CCOCC3)nc(-c3ccc(N)cc3)nc2n1C)c1ncc(C(=O)NO)cn1
Solution: 8.00 to 10.00

Exercise: Again, but for Cc1ncc(-c2nc(N3CCOCC3)c3nc(CN(C)c4ncc(C(=O)NO)cn4)n(C)c3n2)cn1
Solution: 8.00 to 10.00

###

Attribute: IC50
Measurement target: HDAC1 (Homo sapiens)
Construct: purchased BPS Bioscience
Sequence (Q13547 whole entry, species assumed): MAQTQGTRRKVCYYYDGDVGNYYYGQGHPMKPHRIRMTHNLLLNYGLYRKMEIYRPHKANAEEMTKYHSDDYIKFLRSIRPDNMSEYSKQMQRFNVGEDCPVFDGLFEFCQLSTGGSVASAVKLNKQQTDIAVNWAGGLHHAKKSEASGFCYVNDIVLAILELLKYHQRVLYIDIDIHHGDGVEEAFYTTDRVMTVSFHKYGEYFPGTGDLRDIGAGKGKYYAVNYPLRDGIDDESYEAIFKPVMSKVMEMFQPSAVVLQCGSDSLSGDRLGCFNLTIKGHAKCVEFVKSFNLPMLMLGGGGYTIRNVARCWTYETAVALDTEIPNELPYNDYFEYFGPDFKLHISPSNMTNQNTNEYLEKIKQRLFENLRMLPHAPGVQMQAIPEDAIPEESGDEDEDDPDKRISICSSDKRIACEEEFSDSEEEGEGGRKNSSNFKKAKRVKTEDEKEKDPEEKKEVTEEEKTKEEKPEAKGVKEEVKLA
Experiment: In vitro HDAC1 enzymatic activity inhibition (Lys-Ac-AMC substrate)
Type: biochemical
Measurement setup: Table 1, graded; read-out: HDAC1 IC50

Examples from the recorded data:
[[record]]
compound = "CN(Cc1nc2c(N3CCOCC3)nc(-c3ccc(C(F)(F)F)cc3)nc2n1C)c1ncc(C(=O)NO)cn1 [CLJ-55]"
measurement_target = "HDAC1 (Homo sapiens)"
measured_attribute = "IC50"
assay_value = "< 100 nM"

[[record]]
compound = "CN(Cc1nc2c(N3CCOCC3)nc(-c3cccs3)nc2n1C)c1ncc(C(=O)NO)cn1 [CLJ-18]"
measurement_target = "HDAC1 (Homo sapiens)"
measured_attribute = "IC50"
assay_value = "< 100 nM"


Kindly review the next compound as well.
Exercise: What measured IC50 goes with CNc1ncc(-c2nc(N3CCOCC3)c3nc(CN(C)c4ncc(C(=O)NO)cn4)n(C)c3n2)cn1 [CLJ-12] ?
Solution: < 100 nM

###

Test system: A2780s cells (ovarian cancer)
Experiment: Cell proliferation inhibition, A2780s (MTT)
Type: cell-based
Measurement setup: Homo sapiens, 96 h incubation, read-out: Proliferation IC50, Ovarian cancer A2780s
pIC50: −log10 of the molar value.
Measured attribute: pIC50

Example compounds with recorded pIC50:
[[record]]
structure_as_smiles = "CN(Cc1nc2c(N3CCOCC3)nc(-c3cnc(N)nc3)nc2n1C)c1ncc(C(=O)NO)cn1"
measurement_target = "A2780s cells (ovarian cancer)"
assay_value = "7.00 to 8.00"

[[record]]
structure_as_smiles = "COc1ccc(-c2nc(N3CCOCC3)c3nc(CN(C)c4ncc(C(=O)NO)cn4)n(C4CCCC4)c3n2)cc1"
measurement_target = "A2780s cells (ovarian cancer)"
assay_value = "< 6.00"

[[record]]
structure_as_smiles = "CN(Cc1nc2c(N3CCOCC3)nc(-c3ccc4c(c3)OCO4)nc2n1C)c1ncc(C(=O)NO)cn1"
measurement_target = "A2780s cells (ovarian cancer)"
assay_value = "8.00 to 10.00"


Next:
Exercise: Param item = CCn1c(CN(C)c2ncc(C(=O)NO)cn2)nc2c(N3CCOCC3)nc(-c3ccc(OC)cc3)nc21 ; retrieve measured pIC50.
Solution: 7.00 to 8.00

###

Items are presented alongside their recorded IC50.
Measurement target: HDAC1 (Homo sapiens)
Construct: purchased BPS Bioscience
Experiment: In vitro HDAC1 enzymatic activity inhibition (Lys-Ac-AMC substrate)
Assay type: biochemical
Measurement setup: Table 1, graded; read-out: HDAC1 IC50

Consider the reported IC50 for these compounds:
[[record]]
structure_as_smiles = "CN(Cc1nc2c(N3CCOCC3)nc(-c3ccc(C(=O)O)s3)nc2n1C)c1ncc(C(=O)NO)cn1"
assay_value = "< 100 nM"

[[record]]
structure_as_smiles = "CCCN(Cc1nc2c(N3CCOCC3)nc(-c3ccc4[nH]ncc4c3)nc2n1C)c1ncc(C(=O)NO)cn1"
assay_value = "100 to 1000 nM"

[[record]]
structure_as_smiles = "CN(Cc1nc2c(N3CCOCC3)nc(-c3ccc(Cl)c(C(F)(F)F)c3)nc2n1C)c1ncc(C(=O)NO)cn1"
assay_value = "< 100 nM"

[[record]]
structure_as_smiles = "CN(Cc1nc2c(N3CCOCC3)nc(-c3cccc(C(=O)N4CCN(CO)CC4)c3)nc2n1C)c1ncc(C(=O)NO)cn1"
assay_value = "< 100 nM"

[[record]]
structure_as_smiles = "CCCCN(Cc1nc2c(N3CCOCC3)nc(-c3ccc4[nH]ncc4c3)nc2n1C)c1ncc(C(=O)NO)cn1"
assay_value = "100 to 1000 nM"

[[record]]
structure_as_smiles = "CN(Cc1nc2c(N3CCOCC3)nc(-c3ccc(O)cc3)nc2n1C)c1ncc(C(=O)NO)cn1"
assay_value = "100 to 1000 nM"


Now turn to the next compound.
Exercise: API: value(readout=IC50, system=HDAC1 (Homo sapiens)) for record CN(Cc1nc2c(N3CCOCC3)nc(-c3cccnc3)nc2n1C)c1ncc(C(=O)NO)cn1
Solution: < 1 nM
